# Test system: BDF1 mice, P388 leukemia ip, median survival T/C
# method notes: NCI In Vivo Anticancer Drug Screen. Data for tumor model P388 Leukemia (intraperitoneal) in B6D2F1 (BDF1) mice
# condition parameters: endpoint: median survival time; dose: 12.5 mg/kg/injection; schedule: Q01DX009 (ip); vehicle: saline with Tween-80
Inconclusive results and toxic doses are left out. The calls were made as follows: active = survival T/C of 150% or more; inactive = T/C below 125% in these data.
Pick one: yes (1) for active, no (0) for inactive

What outcome does the record of this test show for CC(C)C(C)/C=C\C(C)C1CCC2C3=CCC4CC(=O)CCC4(C)C3CCC21C (centres undefined) ?
no (0)

I'd appreciate the recorded outcome for Cc1cc(O)c(C(c2ccccn2)c2c(O)cc(C)[nH]c2=O)c(=O)[nH]1 from this test.
no (0)

Would you mind telling me which call this test gave O=C(CN1CC1)NCCCCCCCCNC(=O)CN1CC1 ?
yes (1)

Hello, I am checking results. What call was entered for COc1cccc(OC)c1C(c1c(OC)cccc1OC)c1c(OC)cccc1OC ?
no (0)

// outcome(item) with item = NC(=O)NN=C1CSSC1
no (0)

Entry O=c1[nH]cnc2[nH]ccc12 : call = ?
no (0)

# lookup: test call for FC(F)c1nc2nc(Cl)c(Cl)nc2[nH]1
no (0)

Lab log entry: OC(c1cc(C23CC4CC(CC(C4)C2)C3)nc2c(Cl)cc(Cl)cc12)C1CCCCN1 (centres undefined) — outcome as called in the assay?
no (0)

Just curious, what result did C[N-]c1nnnn1C.[Au+].c1ccc([PH+](c2ccccc2)c2ccccc2)cc1 get here?
no (0)

Recorded test outcome, item COP(=S)(NC(C)C)Oc1ccc(C)cc1[N+](=O)[O-] (centres undefined)
no (0)

Fill in: this test's call for COCCn1c2nc(=O)n(-c3ccccc3)c(=O)c-2nc2ccccc21 is ___
no (0)

For OC1(C2CCCCC2)C2CCCC1CCC2 (centres undefined) , which call appears in the assay record?
no (0)

Recorded test call requested for CC(=O)Nc1ccc(S(=O)(=O)N(CCO)c2ccccc2)cc1
no (0)

Status in this test for C=C(CN(CC(=C)C(=O)c1ccccc1)C(C)(C)C)C(=O)c1ccccc1 ?
no (0)

Could you check what this test reported for CCOC(=O)Nc1ccc(/C=C\c2ccnc3ccccc23)cc1 ?
no (0)

Tell me the assay call for CCC/C(C)=N/Nc1ccccn1 please.
no (0)

Dear all, I need the recorded test outcome for O=C1NNC(c2ccccc2)C1(Cl)Cl (centres undefined) , thank you.
no (0)

Could you kindly confirm the outcome this assay logged for O=Cc1nccn1Cc1ccccc1 ?
no (0)

Write down the call the test reported for this compound. Item: Cc1cc2c(c3ncccc13)OCN(Cc1ccc(Cl)c(Cl)c1)C2
no (0)

----------
# Test system: BDF1 mice, P388 leukemia ip, median survival T/C
# method notes: NCI In Vivo Anticancer Drug Screen. Data for tumor model P388 Leukemia (intraperitoneal) in B6D2F1 (BDF1) mice
# condition parameters: endpoint: median survival time; dose: 25.0 mg/kg/injection; schedule: Q01DX009 (ip); vehicle: Klucel (hydroxypropylcellulose) (HPC); higher = longer survival
Inconclusive results and toxic doses are left out.
Assign T/C to each entry below.

So what does the record say about T/C for Clc1ccc2nc(CI)c(CI)nc2c1 ?
95 % of control

Name the reported T/C value associated with the compound O=c1oc2c3ccccc3c3ccccc3c2o1
117 % of control

If you can, please state the reported T/C value of CC(=O)O[C@H]1CC[C@H]2[C@@H]3CC[C@H]4CC=C(C#N)C[C@]4(C)[C@H]3CC[C@]12C .
88 % of control

Which T/C value belongs to Nc1nc(=S)c2[nH]c(N=Nc3ccc(S(=O)(=O)Nc4ccccn4)cc3)nc2[nH]1 ?
91 % of control

Given the entry Nc1c(Br)cc2c(c1Br)Cc1cc(Cl)ccc1-2 , report its measured T/C.
100 % of control

What does the data say about its T/C? Entry: CC(=O)O[C@H]1CC[C@H]2[C@@H]3CC[C@H]4C[C@@H]5[C@H](C[C@]4(C)[C@H]3CC[C@]12C)C5(F)F
100 % of control

Field request: T/C | item: CC[C@H](C)c1occ2c(O)c(C(=O)O)c(=O)cc-2c1C
118 % of control

// returns reported T/C for input COc1ccc(OCC(O)CN2CCN(c3ccc(Cl)cc3)CC2)cc1 (stereo unspecified)
86 % of control

Could you tell me which T/C is on file for CCCCCCC[CH2][Sn](=[O])[CH2]CCCCCCC ?
86 % of control

Requested read-out: T/C. Entry: CC(=O)O.[Pb]
109 % of control

I have this compound here, CCOc1ccc(/C=N\N=C\c2ccc(OCC)cc2)cc1 , and I need its recorded T/C.
96 % of control

----------
Could you please report measured T/C for the items listed next?
# Test system: BDF1 mice, P388 leukemia ip, median survival T/C
# method notes: NCI In Vivo Anticancer Drug Screen. Data for tumor model P388 Leukemia (intraperitoneal) in B6D2F1 (BDF1) mice
# condition parameters: endpoint: median survival time; dose: 200.0 mg/kg/injection; schedule: Q04DX003 (ip); vehicle: water; higher = longer survival
Inconclusive results and toxic doses are left out.

Give the measured T/C of COc1cccc(CCC(=O)O)c1OC .
103 % of control

Any idea what its T/C is? The molecule is NC(=O)c1nc(C(F)(F)F)[nH]c1C(N)=O
109 % of control

Which T/C value belongs to CC1CCC2(C)CCC3(C)C(=CCC4C5(C)CCC(O)C(C)(C)C5CCC43C)C2C1C (stereo unspecified) ?
90 % of control

Quick one: T/C of Clc1ccc(-c2cc(=[N+]3CCC4(CC3)SSC3(CC[N+](=c5cc(-c6ccc(Cl)cc6)ss5)CC3)S4)ss2)cc1 (stereo unspecified) ?
97 % of control

Using the record for Brc1cnn2c1NCC2 , report its T/C.
93 % of control

T/C for O=C1NC(c2cccs2)(c2cccs2)C(=O)N1Cl ?
88 % of control

----------
Consider the following compounds; for each one, report its T/C.
# Tested on: BDF1 mice, P388 leukemia ip, median survival T/C
# method notes: NCI In Vivo Anticancer Drug Screen. Data for tumor model P388 Leukemia (intraperitoneal) in B6D2F1 (BDF1) mice
# condition parameters: endpoint: median survival time; dose: 200.0 mg/kg/injection; schedule: Q04DX003 (ip); vehicle: saline sonified; higher = longer survival
Inconclusive results and toxic doses are left out.

Give T/C (BDF1 mice, P388 leukemia ip, median survival T/C) of the following compound: O=[N+]([O-])c1ccc(S(=O)(=O)OCc2cccc(OS(=O)(=O)c3ccc([N+](=O)[O-])cc3)c2)cc1
116 % of control

Param readout= T/C; system= BDF1 mice, P388 leukemia ip, median survival T/C; entry= CC(C)c1cccc(OS(=O)(=O)c2ccccc2[N+](=O)[O-])c1 ; returns value.
100 % of control

What value of T/C on BDF1 mice, P388 leukemia ip, median survival T/C does C[C@@H]1CC[C@@]2(NC1)O[C@H]1C[C@H]3[C@@H]4CC=C5C[C@@H](O)CC[C@]5(C)[C@H]4CC[C@]3(C)[C@H]1[C@@H]2C have?
105 % of control

Please tell me: T/C of O=C(O)c1cc2c(Br)cccc2c2cc(C(F)(F)F)ccc12 , system BDF1 mice, P388 leukemia ip, median survival T/C?
100 % of control

----------
# Test system: BDF1 mice, P388 leukemia ip, median survival T/C
# method notes: NCI In Vivo Anticancer Drug Screen. Data for tumor model P388 Leukemia (intraperitoneal) in B6D2F1 (BDF1) mice
# condition parameters: endpoint: median survival time; dose: 50.0 mg/kg/injection; schedule: Q01DX005 (ip); vehicle: saline with Tween-80; higher = longer survival
Inconclusive results and toxic doses are left out. Residues, ends and D or L forms follow the SMILES beside them. *: point of attachment. Boc = CC(C)(C)OC(=O)*; OBn = c1ccc(CO*)cc1
Provide the recorded T/C for the entries that follow.

May I ask what T/C has been recorded for O=C1c2ccccc2C(=O)C1C(C[N+](=O)[O-])c1ccccc1 (stereo unspecified) ?
99 % of control

Quick one: T/C for CC1(C)OC2(C)CCC1C(O)C2N1CCCCC1 (stereo unspecified) ?
108 % of control

Fill blank: measured T/C of the compound CC(=O)NC(C)C(=O)NC(C)C(=O)NC(C)C(=O)NC(C)C(=O)O (stereo unspecified) (Ac-AAAA-OH; configuration not given here) is ____.
98 % of control

Recorded T/C of CCOP(=S)(OCC)Sc1cnn(C)c(=O)c1SCC , please.
100 % of control

# T/C lookup, item COc1ccc(C2C(C#N)=C(N)NC(=O)C2C(N)=O)cc1 (stereo unspecified)
92 % of control

Could you share which T/C value was measured for O=C1c2ccccc2C(=O)c2c(NCCOCCO)ccc(NCCOCCO)c21 ?
94 % of control

Report T/C for CC(=O)NC(CCCCNC(=O)OCc1ccccc1)C(=O)O (stereo unspecified) please.
90 % of control

# get_value(readout='T/C', item= Cc1cc(S(=O)(=O)c2ccc(Cl)cc2)nc(S(=O)(=O)c2ccc(Cl)cc2)c1C#N )
110 % of control

Can you share its T/C? I mean this compound: Cc1cc(-c2ccc(NC(=O)c3cccc([N+](=O)[O-])c3)c(C)c2)ccc1NC(=O)c1cccc([N+](=O)[O-])c1
96 % of control

Bench note: what T/C did CC(C)(C)OC(=O)NCC(=O)NCC(=O)NCC(=O)OCc1ccccc1 (Boc-Gly-Gly-Gly-OBn) show?
95 % of control

Reported T/C, compound O=C1CCCCC1N1CCCCC1 (stereo unspecified) : ____
98 % of control
